biological target: TJP1_2, Q07157; assay: holdup assay; set-up: key: below the threshold = too weak to quantify, mostly under pKd 3.1 to 4; settings: plain residues with an end cap or a label only (N-terminal biotin on a linker: ado-ado)
Sequence (Q07157 181-274): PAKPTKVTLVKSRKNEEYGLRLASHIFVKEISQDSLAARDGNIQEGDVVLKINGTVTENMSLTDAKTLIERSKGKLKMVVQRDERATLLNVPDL
experimentalEndpoint: pKd

Below, each entry is followed by its recorded pKd result.
TSSMRGMDAV [RSRC2, Q7L4I2] ... below the threshold
SGSLKLMTTV [DACT1, Q9NYF0] ... below the threshold
TSQESEDTYL [TBC1D10A, Q9BXI6] ... below the threshold
DDPSTAETVL [ABCA7, Q8IZY2] ... below the threshold
MLSKQSESAI [FLVCR1, Q9Y5Y0] ... below the threshold

Below is a list of binders. For each, state its recorded pKd.
1. GQEEQVTTRL [TRPC5, Q9UL62]
2. RKPKPSSSCC [RAB9A, P51151]

RESULT:
1: below the threshold; 2: below the threshold

Below is a list of binders. For each, state its recorded pKd.
1. PEYLGLDVPV [ERBB2, P04626]
2. QPCFNKLFPL [LPXN, O60711]
3. QGPVETESVV [SLC45A4, Q5BKX6]

RESULT:
[3.65, "below the threshold", 3.54]
